Data provenance is ChEMBL document CHEMBL3507680.

assay: Human HepG2 cell viability assay in 384 well format; type: toxicity, cell-based; set-up: dose 125 nL, time 70.5 hour; concentration not given beside the values; details: HepG2 cells, read-out: Inhibition
This section presents compounds with their documented cytotoxicity at 70.5 h values.
Assay Metric: cytotoxicity at 70.5 h (%)

[[record]]
compound = "O=C(CCCNC(=O)c1cnccn1)Nc1ncc[nH]1"
number = -27.2

[[record]]
compound = "CS(=O)(=O)NC[C@H]1Cn2c(-c3ccc(F)cc3)cnc2CO1"
number = -3.71

[[record]]
compound = "CCCc1nc(NCCCO)c2c(n1)c(C)nn2CC"
number = -14

[[record]]
compound = "CCNc1ncc(C2CC(=O)Nc3c2cnn3Cc2ccncc2)cn1 (configuration not stated)"
number = 5.87

[[record]]
compound = "CC(NC(=O)NCCCn1ccnc1)c1ccc2c(c1)OCCCO2 (configuration not stated)"
number = -10.6

[[record]]
compound = "CC(C)CN1CCC2(COCc3cnc(-c4ccccc4)nc32)C1 (configuration not stated)"
number = -3.09

[[record]]
compound = "CC(=O)c1ccc(OCC(=O)NS(=O)(=O)c2ccc(Cl)s2)cc1"
number = -10.1

[[record]]
compound = "CNC(=O)c1cccc(CNC2CCSc3c(Cl)cccc32)c1 (configuration not stated)"
number = 35.4

[[record]]
compound = "Cc1cc(CN2CCC(C3CCN(Cc4cccnc4)CC3)C2)[nH]n1 (configuration not stated)"
number = -6.23

[[record]]
compound = "COc1ccnc(N2CCN(C(=O)Cc3ccc(C#N)cc3)CC2)n1"
number = -0.995

[[record]]
compound = "CC(CNC(=O)CCc1ccco1)N1CCc2sccc2C1 (configuration not stated)"
number = 3.4

[[record]]
compound = "Cc1cnc2n(c1=O)C(CC(=O)NCc1cccnc1)CS2 (configuration not stated)"
number = -0.178


###

experiment: Human HepG2 cell viability assay in 384 well format; type: toxicity, cell-based; set-up: dose 125 nL, time 70.5 hour; concentration not given beside the values; conditions: HepG2 cells, read-out: Inhibition
Assay Metric: cytotoxicity at 70.5 h (%)

[[record]]
compound = "Cn1cccc1C(CNC(=O)COc1ccc(Cl)cc1Cl)N1CCCC1 (configuration not stated)"
assay_metric = "cytotoxicity at 70.5 h"
number = -16.7

[[record]]
compound = "Cn1cc(N)c(-c2nnc3n2CCCC3)n1"
assay_metric = "cytotoxicity at 70.5 h"
number = -0.222

[[record]]
compound = "COC(=O)CCN(CC1CCCO1)C(=O)CCc1ccc(OC)cc1 (configuration not stated)"
assay_metric = "cytotoxicity at 70.5 h"
number = -7.89

[[record]]
compound = "Fc1ccc(CCN2CCC(c3nnc(-c4cccnc4)o3)CC2)cc1"
assay_metric = "cytotoxicity at 70.5 h"
number = 16.7

[[record]]
compound = "Oc1cccc(CN2CCN(C3CCc4ccccc4C3)CC2)c1 (configuration not stated)"
assay_metric = "cytotoxicity at 70.5 h"
number = 19.8

[[record]]
compound = "CCOC(C)c1nccn1Cc1cc(C)on1 (configuration not stated)"
assay_metric = "cytotoxicity at 70.5 h"
number = -1.6

[[record]]
compound = "Fc1cccc2ncnc(NCCCc3ccncc3)c12"
assay_metric = "cytotoxicity at 70.5 h"
number = -4.44

[[record]]
compound = "Cc1cc(NC(=O)NC(C)CN2CCN(c3ccccc3)CC2)on1 (configuration not stated)"
assay_metric = "cytotoxicity at 70.5 h"
number = -5.02

[[record]]
compound = "Cc1cnn(C2CCCN(C(=O)CCCNc3ncccn3)C2)c1 (configuration not stated)"
assay_metric = "cytotoxicity at 70.5 h"
number = -14.5

[[record]]
compound = "CN(C)C(=O)C1CN(Cc2ccsc2)CCN(S(C)(=O)=O)C1 (configuration not stated)"
assay_metric = "cytotoxicity at 70.5 h"
number = -6.36

[[record]]
compound = "COC(=O)N1CCCC(C(=O)N2CCCCC2)C1 (configuration not stated)"
assay_metric = "cytotoxicity at 70.5 h"
number = -4.53

[[record]]
compound = "CCOCCN1CCN(Cc2cccc(C(=O)N(C)C)c2)CC1CC (configuration not stated)"
assay_metric = "cytotoxicity at 70.5 h"
number = -6.73

[[record]]
compound = "O=C(c1cc[nH]n1)N1CCCC1C1CCN(Cc2ccccc2)CC1 (configuration not stated)"
assay_metric = "cytotoxicity at 70.5 h"
number = -3.3

[[record]]
compound = "CN(C)CCO[C@H]1CN(C(=O)c2ccc3c(c2)OCO3)[C@@H]2COC[C@H]12"
assay_metric = "cytotoxicity at 70.5 h"
number = -11.6

[[record]]
compound = "O=C(Cn1c(-c2ccco2)cc2cccnc21)N1CCCC1"
assay_metric = "cytotoxicity at 70.5 h"
number = -8.97

[[record]]
compound = "COc1ccccc1CNC(=O)C1=NN(c2ccc(C)cc2)C(=O)CN1"
assay_metric = "cytotoxicity at 70.5 h"
number = -4.66

[[record]]
compound = "COc1cccn(Cc2nnc(-c3cccnc3)o2)c1=O"
assay_metric = "cytotoxicity at 70.5 h"
number = -1.16

[[record]]
compound = "O=S(=O)(CCN1CCCCC1Cn1cncn1)c1ccccc1 (configuration not stated)"
assay_metric = "cytotoxicity at 70.5 h"
number = 27.2

[[record]]
compound = "CS(=O)(=O)N1CCN(C(=O)c2[nH]c3ccc(Cl)cc3c2Cl)CC1"
assay_metric = "cytotoxicity at 70.5 h"
number = -6.15

[[record]]
compound = "COc1c(CNCc2ccc3c(c2)OCO3)c(C(C)C)nn1C"
assay_metric = "cytotoxicity at 70.5 h"
number = 18.3

[[record]]
compound = "Cc1ccc2c(c1)cc(CN1CC[C@](C)(O)[C@H](C)C1)n2C"
assay_metric = "cytotoxicity at 70.5 h"
number = -0.93

[[record]]
compound = "COc1ccc(-n2cnc(Cl)c2CO)cc1"
assay_metric = "cytotoxicity at 70.5 h"
number = -2.44

[[record]]
compound = "O=C1CC(N(C(=O)COc2ccc(F)cc2F)C2CC2)C(=O)N1 (configuration not stated)"
assay_metric = "cytotoxicity at 70.5 h"
number = -6.63

[[record]]
compound = "Cc1cccc(C2(CNC(=O)CCNS(C)(=O)=O)CCCC2)c1"
assay_metric = "cytotoxicity at 70.5 h"
number = 27

[[record]]
compound = "O=C(NCCNS(=O)(=O)c1ccc2c(c1)CCCC2)c1ccoc1"
assay_metric = "cytotoxicity at 70.5 h"
number = -8.42

[[record]]
compound = "Cc1ccccc1-n1ccnc1S(=O)(=O)Cc1nsc(N(C)C)n1"
assay_metric = "cytotoxicity at 70.5 h"
number = -11

[[record]]
compound = "CCn1ncc(S(=O)(=O)N[C@@H]2CCC[C@@H](n3ccnc3)[C@@H]2O)c1C"
assay_metric = "cytotoxicity at 70.5 h"
number = -2.3

[[record]]
compound = "CN(CCCc1cnn(C)c1)C(=O)C1CCC(=O)N(C2CCCC2)C1 (configuration not stated)"
assay_metric = "cytotoxicity at 70.5 h"
number = -0.586

[[record]]
compound = "Cc1cc(C2CCCN2Cc2cc(=O)n(C)c(=O)n2C)no1 (configuration not stated)"
assay_metric = "cytotoxicity at 70.5 h"
number = 18.5

[[record]]
compound = "CCOc1nnc(CN(C)C2CCCN(c3cccnn3)C2)s1 (configuration not stated)"
assay_metric = "cytotoxicity at 70.5 h"
number = 3.52

[[record]]
compound = "CCOc1ccc(C(=O)n2cccn2)cc1"
assay_metric = "cytotoxicity at 70.5 h"
number = -4.2

[[record]]
compound = "COCCN1C(=O)C2(CCC(C(=O)Nc3ccccn3)CC2)N=C1C (configuration not stated)"
assay_metric = "cytotoxicity at 70.5 h"
number = -11.2

[[record]]
compound = "CC1=NOC(C(=O)N(C)CCCn2nc(C)cc2C)C1 (configuration not stated)"
assay_metric = "cytotoxicity at 70.5 h"
number = -0.336

[[record]]
compound = "CC(C)C(C)(C#N)NC(=O)CN1CCCN(Cc2ccccc2F)CC1 (configuration not stated)"
assay_metric = "cytotoxicity at 70.5 h"
number = -3.81

[[record]]
compound = "CC(=O)N1C[C@@H]2CN(Cc3cccnc3)CCO[C@@H]2C1"
assay_metric = "cytotoxicity at 70.5 h"
number = -11.3

[[record]]
compound = "N#Cc1cccc(N2CCCC3(CCC(=O)N(C4CCCC4)C3)C2)n1 (configuration not stated)"
assay_metric = "cytotoxicity at 70.5 h"
number = 4.95

[[record]]
compound = "CCCn1nnnc1COC(=O)C1COc2ccccc2O1 (configuration not stated)"
assay_metric = "cytotoxicity at 70.5 h"
number = -6.23

[[record]]
compound = "CCCC(=O)NC1CCCN(c2cncc(Br)c2)C1 (configuration not stated)"
assay_metric = "cytotoxicity at 70.5 h"
number = -10.5

[[record]]
compound = "Cc1noc(C)c1CN(C)c1nc(C2CCCC2)nc2c1cnn2C"
assay_metric = "cytotoxicity at 70.5 h"
number = 9.62

[[record]]
compound = "OCCC1CN(c2ncnc3[nH]cnc23)CCN1Cc1cccs1 (configuration not stated)"
assay_metric = "cytotoxicity at 70.5 h"
number = -3.01

[[record]]
compound = "CCCc1cnc(C)nc1N1CCC(Cn2cc(CN(C)C)nn2)CC1"
assay_metric = "cytotoxicity at 70.5 h"
number = -6.13

[[record]]
compound = "Cc1noc(C)c1C(=O)N1CC[C@H]2C[C@@H](c3nccs3)O[C@@H]2C1"
assay_metric = "cytotoxicity at 70.5 h"
number = -13.5

[[record]]
compound = "CCN1CC(NC(=O)Nc2nc(C)n(C(C)C)n2)CC1=O (configuration not stated)"
assay_metric = "cytotoxicity at 70.5 h"
number = 9.96

[[record]]
compound = "CC(C)c1nnsc1CNC(=O)C1CCN(C(C)C)CC1"
assay_metric = "cytotoxicity at 70.5 h"
number = 1.46

[[record]]
compound = "Cc1nc(C2CCCN2C(=O)Cc2ccc(F)cc2)nc(O)c1C (configuration not stated)"
assay_metric = "cytotoxicity at 70.5 h"
number = 2.83

[[record]]
compound = "O=C(Cc1ccsc1)N1CCC(n2nc(-c3ccco3)ccc2=O)CC1"
assay_metric = "cytotoxicity at 70.5 h"
number = 1.25

[[record]]
compound = "Cc1ccc(CN2C(=O)CCC2C(=O)Nc2cnn(C)c2)o1 (configuration not stated)"
assay_metric = "cytotoxicity at 70.5 h"
number = -4.24

